- ASSAYED_SYSTEM: WIZ (Homo sapiens, UniProt O95785+Q96SW2)
- Construct: expressed in transfected cells
- Sequence (O95785 whole entry): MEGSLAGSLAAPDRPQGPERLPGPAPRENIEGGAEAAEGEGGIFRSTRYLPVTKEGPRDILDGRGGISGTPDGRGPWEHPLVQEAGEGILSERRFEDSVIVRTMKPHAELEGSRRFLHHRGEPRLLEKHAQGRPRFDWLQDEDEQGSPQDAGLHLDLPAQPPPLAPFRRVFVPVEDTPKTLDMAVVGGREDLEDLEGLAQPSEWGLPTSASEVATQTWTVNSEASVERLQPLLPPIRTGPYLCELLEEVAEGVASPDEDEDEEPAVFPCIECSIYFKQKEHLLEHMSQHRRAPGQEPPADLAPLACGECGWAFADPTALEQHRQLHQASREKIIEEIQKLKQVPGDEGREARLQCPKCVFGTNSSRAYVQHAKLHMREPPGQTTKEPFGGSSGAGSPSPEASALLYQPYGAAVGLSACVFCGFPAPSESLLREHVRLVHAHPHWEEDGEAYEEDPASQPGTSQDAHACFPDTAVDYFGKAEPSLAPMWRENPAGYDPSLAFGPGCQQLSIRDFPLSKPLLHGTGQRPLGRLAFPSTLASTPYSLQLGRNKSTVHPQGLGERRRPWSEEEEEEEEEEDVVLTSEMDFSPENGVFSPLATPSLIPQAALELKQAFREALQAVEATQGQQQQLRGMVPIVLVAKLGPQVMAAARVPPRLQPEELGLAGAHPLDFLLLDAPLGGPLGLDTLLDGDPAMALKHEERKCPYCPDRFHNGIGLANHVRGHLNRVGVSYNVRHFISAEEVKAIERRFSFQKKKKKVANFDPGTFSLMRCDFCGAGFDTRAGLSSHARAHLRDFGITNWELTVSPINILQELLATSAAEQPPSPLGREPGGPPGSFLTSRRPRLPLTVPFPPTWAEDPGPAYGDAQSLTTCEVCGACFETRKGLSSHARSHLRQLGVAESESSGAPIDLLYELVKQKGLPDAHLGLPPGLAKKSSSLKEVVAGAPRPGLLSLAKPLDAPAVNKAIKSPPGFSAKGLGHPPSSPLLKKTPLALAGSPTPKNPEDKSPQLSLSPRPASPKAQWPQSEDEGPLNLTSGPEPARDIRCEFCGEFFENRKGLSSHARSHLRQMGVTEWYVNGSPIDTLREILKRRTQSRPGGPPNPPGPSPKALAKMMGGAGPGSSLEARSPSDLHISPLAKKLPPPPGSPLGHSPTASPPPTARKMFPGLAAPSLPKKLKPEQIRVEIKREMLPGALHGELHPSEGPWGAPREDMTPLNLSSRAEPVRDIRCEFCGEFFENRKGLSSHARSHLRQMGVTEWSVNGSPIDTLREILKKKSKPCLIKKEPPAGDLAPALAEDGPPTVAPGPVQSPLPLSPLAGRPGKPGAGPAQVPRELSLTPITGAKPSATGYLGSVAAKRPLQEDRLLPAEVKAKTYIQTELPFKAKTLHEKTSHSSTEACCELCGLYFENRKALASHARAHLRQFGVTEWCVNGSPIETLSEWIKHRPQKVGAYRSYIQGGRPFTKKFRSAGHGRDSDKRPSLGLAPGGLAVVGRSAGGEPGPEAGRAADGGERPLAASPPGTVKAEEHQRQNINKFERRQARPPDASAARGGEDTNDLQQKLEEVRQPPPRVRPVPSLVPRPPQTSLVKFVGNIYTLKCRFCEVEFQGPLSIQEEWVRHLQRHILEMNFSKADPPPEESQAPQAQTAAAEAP
- Sequence (Q96SW2 whole entry): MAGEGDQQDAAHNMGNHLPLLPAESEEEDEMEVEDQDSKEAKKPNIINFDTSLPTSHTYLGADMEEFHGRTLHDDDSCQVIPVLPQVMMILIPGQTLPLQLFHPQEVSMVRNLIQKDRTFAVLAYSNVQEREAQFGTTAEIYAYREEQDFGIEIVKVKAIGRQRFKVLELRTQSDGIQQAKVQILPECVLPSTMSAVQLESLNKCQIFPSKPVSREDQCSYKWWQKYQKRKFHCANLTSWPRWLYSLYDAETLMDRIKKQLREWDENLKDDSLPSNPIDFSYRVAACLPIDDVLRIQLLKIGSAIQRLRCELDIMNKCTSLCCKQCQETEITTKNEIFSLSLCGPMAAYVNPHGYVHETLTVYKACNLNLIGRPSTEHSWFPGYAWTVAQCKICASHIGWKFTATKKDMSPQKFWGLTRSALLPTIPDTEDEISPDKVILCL
- Sequence (Q16531 whole entry partner): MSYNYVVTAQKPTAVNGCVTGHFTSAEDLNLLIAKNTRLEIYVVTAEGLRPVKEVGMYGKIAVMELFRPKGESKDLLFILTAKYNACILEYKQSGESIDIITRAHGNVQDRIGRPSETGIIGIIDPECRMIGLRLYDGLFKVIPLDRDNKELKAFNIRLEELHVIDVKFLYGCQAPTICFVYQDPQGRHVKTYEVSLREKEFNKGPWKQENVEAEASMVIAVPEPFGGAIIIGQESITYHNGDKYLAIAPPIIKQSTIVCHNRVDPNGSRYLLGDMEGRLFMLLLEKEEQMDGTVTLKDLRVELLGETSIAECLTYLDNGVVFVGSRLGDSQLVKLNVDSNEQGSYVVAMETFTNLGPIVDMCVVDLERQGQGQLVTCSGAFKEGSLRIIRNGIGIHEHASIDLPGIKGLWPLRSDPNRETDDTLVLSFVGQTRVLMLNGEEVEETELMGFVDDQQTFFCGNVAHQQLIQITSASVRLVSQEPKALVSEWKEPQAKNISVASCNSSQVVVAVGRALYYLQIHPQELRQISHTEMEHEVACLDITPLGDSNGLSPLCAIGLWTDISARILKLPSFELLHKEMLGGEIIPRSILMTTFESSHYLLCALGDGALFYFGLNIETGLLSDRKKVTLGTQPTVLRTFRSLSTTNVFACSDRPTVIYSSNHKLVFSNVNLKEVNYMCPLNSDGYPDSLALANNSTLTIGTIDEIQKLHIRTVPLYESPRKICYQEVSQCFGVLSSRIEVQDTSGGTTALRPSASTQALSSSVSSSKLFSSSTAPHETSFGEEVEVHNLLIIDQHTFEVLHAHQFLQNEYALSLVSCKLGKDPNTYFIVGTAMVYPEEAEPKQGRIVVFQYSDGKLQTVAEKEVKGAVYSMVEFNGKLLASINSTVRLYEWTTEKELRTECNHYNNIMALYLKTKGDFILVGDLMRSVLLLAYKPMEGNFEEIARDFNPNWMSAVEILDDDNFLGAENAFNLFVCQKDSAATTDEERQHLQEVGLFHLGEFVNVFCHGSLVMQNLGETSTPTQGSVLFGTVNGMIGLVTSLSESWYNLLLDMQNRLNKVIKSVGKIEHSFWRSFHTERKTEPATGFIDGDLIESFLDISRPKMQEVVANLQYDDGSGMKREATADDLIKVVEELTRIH
- EXPERIMENT_DESCRIPTION: Quantification of WIZ protein levels in HiBit tag fusion protein assay (293T cells)
- Type: cell-based
- RUN_PARAMETERS: HEK-293T; DMSO-normalized, curve-fitted percentage of WIZ-HiBit remaining at 25 uM; read-out: WIZ Amax
- Description: The HiBit system from Promega was used to develop high-throughput and quantitative assays to measure changes in WIZ protein levels in response to compounds. […] The complementary fragment of Nanoluciferase (known as LgBit, from Promega), was added to the HiBit tag to form an active Nanoluciferase enzyme whose activity can be precisely measured. In this way, the levels of a fusion protein with the HiBit tag can be quantified in cell lysates. […]
MEASURED_ATTRIBUTE: remaining activity at 25 µM (%)

[[record]]
molecule = "O=C1CCC(N2Cc3cc(O[C@@H]4CCCN(CC5CCC5)C4)ccc3C2=O)C(=O)N1 (some centres unmarked)"
assayed_system = "WIZ (Homo sapiens, UniProt O95785+Q96SW2)"
endpoint_result = 38.9


P: CCOC(=O)N1C[C@H](OCC)C[C@@H](Oc2ccc3c(c2)CN(C2CCC(=O)NC2=O)C3=O)C1 (some centres unmarked)
Q: O=C1CCC(N2Cc3cc(O[C@@H]4CCCN(C5CCOCC5)C4)ccc3C2=O)C(=O)N1 (some centres unmarked)
Request: When their remaining activity at 25 µM values are compared, which is larger, P or Q ? Pick one; state its label.
Response: P

a: CCN1C[C@@H]2C[C@@H]2[C@H](Oc2ccc3c(c2)CN(C2CCC(=O)NC2=O)C3=O)C1 (relative stereo)
b: CCO[C@@H]1C[C@@H](Oc2ccc3c(c2)CN(C2CCC(=O)NC2=O)C3=O)CN(S(C)(=O)=O)C1 (some centres unmarked)
Request: Which has the smaller recorded remaining activity at 25 µM, a or b ? Please respond with the label that marks your chosen entry.
Response: b
(b: 39%, a: 78.2%)
